- Target under test: MDM2 (Homo sapiens)
- Sequence (Q00987 whole entry): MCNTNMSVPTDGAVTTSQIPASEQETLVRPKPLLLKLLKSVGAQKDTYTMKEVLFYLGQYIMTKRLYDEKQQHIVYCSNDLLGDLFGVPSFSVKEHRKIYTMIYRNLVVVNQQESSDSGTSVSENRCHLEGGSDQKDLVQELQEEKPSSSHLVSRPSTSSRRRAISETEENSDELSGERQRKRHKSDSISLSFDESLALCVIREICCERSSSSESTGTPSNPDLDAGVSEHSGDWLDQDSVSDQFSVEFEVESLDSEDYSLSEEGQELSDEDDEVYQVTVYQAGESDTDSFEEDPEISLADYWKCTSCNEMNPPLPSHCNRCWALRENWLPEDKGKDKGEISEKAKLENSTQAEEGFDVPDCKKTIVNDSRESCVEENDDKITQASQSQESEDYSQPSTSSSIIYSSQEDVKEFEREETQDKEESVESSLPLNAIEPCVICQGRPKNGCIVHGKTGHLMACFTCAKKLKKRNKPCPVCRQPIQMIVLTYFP
- Run description: MDM2 binding screen of Libraries 3 and 4: displacement of fluorescent probe F-M8 at 750 nM macrocycle
- Condition notes: Panel b, Library 3: 63 scaffolds combinatorially acylated with 15 carboxylic acids at 30 picomole scale; displacement of fluorescent peptide probe; macrocycle 750 nM
Measured property: fraction of fluorescent probe displaced
Answers are plain numbers.

// below: answered compounds
>>> quantitative_result("O=C(NC[C@@H]1NC(=O)[C@@H]2CN(CCO2)C(=O)CCSSCCNC(=O)[C@@H](Cc2c[nH]c3ccccc23)NC1=O)c1ccc(Cl)cc1 [X-Cop-Dap-D-Trp + Acid 25]")
-0.012
>>> quantitative_result("O=C(/C=C/c1ccc(Cl)cc1)NCCN1CC(=O)N[C@@H](Cc2cccc3ccccc23)C(=O)NCCSSCCC(=O)NCC2(CC2)C1=O [X-Amcp-N-Aeg-1-NaI + Acid 108]")
0.035
>>> quantitative_result("O=C1CCSSCCNC(=O)[C@@H](Cc2c[nH]c3ccccc23)NC(=O)[C@@H](CNC(=O)c2cccc(Oc3ccccc3)c2)NC(=O)C2(CC2)CN1 [X-Amcp-D-Dap-D-Trp + Acid 111]")
-0.019

Using the record for Cn1cc(C[C@@H]2NC(=O)CN(CCNC(=O)/C=C/c3ccc4ccccc4c3)C(=O)[C@@H]3CN(CCO3)C(=O)CCSSCCNC2=O)c2ccccc21 [X-Cop-N-Aeg-Me-Trp + Acid 112] , report its fraction of fluorescent probe displaced.
0.028

----------
- Target under test: UniProt Q00987
- Run description: MDM2 binding screen: displacement of fluorescent p53 peptide probe FP53 (fluorescence polarization)
- Condition notes: Acid 25; replicate; crude macrocycle reactions
Numbered stars: 1 amine (or outer) side, 2 acyl side, 3 side chain; on linkers, the order of the positions; unused ones are H or OH. Bridge positions count the residues as written; N and C are the ends. Square brackets hold non-standard residues; d marks the D form. Peptide text beside a SMILES is read from it. * marks the point of attachment. ξ: configuration not given here. Pro(cis-4-NHBenzoyl(4-Cl)) = O=C(N[C@@H]1CN[C@H](C(=O)O)C1)c1ccc(Cl)cc1; ξPro(4ξ-NHCOC6H4-4-Cl) = O=C(NC1CNC(C(=O)O)C1)c1ccc(Cl)cc1; Benzoyl(4-Cl) = O=C(c1ccc(Cl)cc1)*; Cysteamide = C(CS[*:3])N[*:1]; Api = NC1(C(=O)O)CCNCC1; Dap = NC[C@H](N)C(=O)O; Mpa = O=C(O)CCS
Measured property: fraction fluorescent probe displaced, Replicate
Numbers only.

These recorded examples may help you get a feel for the data.
>>> quantitative_result("O=C1CCNC(=O)C2(CCN(C(=O)c3ccc(Cl)cc3)CC2)NC(=O)[C@H](Cc2c[nH]c3ccccc23)NC(=O)CCSSCCN1")
0.0465
>>> quantitative_result("O=C1CCSSCCNC(=O)[C@H]2CCCN(C2)C(=O)[C@H](CNC(=O)c2ccc(Cl)cc2)NC(=O)[C@H](Cc2c[nH]c3ccccc23)N1")
0.12

// batch mode: one fraction fluorescent probe displaced, Replicate value per listed entry
1. O=C1NCCSSCCC(=O)N2C[C@@H](NC(=O)c3ccc(Cl)cc3)C[C@H]2C(=O)N[C@@H](Cc2c[nH]c3ccccc23)C(=O)NCc2cccc1c2
2. O=C1CCSSCCNC(=O)C2CCCN2C(=O)C2CC(NC(=O)c3ccc(Cl)cc3)CN2C(=O)C(Cc2c[nH]c3ccccc23)N1 (stereo not drawn) [X W D5 B1 Acid 25] ([Mpa]W[ξPro(4ξ-NHCOC6H4-4-Cl)]P-Cysteamide; disulfide 1-C; configuration not given here)
3. O=C1CCSSCCNC(=O)C2CN(C(=O)c3ccc(Cl)cc3)CCN2C(=O)CCNC(=O)[C@H](Cc2ccccc2)N1 (stereo partly drawn)
4. O=C1CCSSCCNC(=O)c2cccc(c2)CNC(=O)C2(CCN(C(=O)c3ccc(Cl)cc3)CC2)NC(=O)C(Cc2ccccc2)N1 (stereo not drawn)
5. O=C1CCSSCCNC(=O)[C@@H]2CCCN2C(=O)[C@H](CNC(=O)c2ccc(Cl)cc2)NC(=O)[C@H](Cc2ccccc2)N1 [X F D3 B1 Acid 25] ([Mpa]F[Dap](Benzoyl(4-Cl))P-Cysteamide; disulfide 1-C)
6. O=C1CCSSCCNC(=O)C2(CCN(C(=O)c3ccc(Cl)cc3)CC2)NC(=O)C2CCCN(C2)C(=O)C(Cc2ccccc2)N1 (stereo not drawn)

[0.0465, 0.28, 0.10, 0.12, 0.15, 0.07]

// each listed compound needs a value for fraction fluorescent probe displaced, Replicate
1. O=C1CCSSCCNC(=O)C2(CCN(C(=O)c3ccc(Cl)cc3)CC2)NC(=O)[C@@H]2CCCN2C(=O)[C@H](Cc2ccccc2)N1 [X F B1 D6 Acid 25] ([Mpa]FP[Api](Benzoyl(4-Cl))-Cysteamide; disulfide 1-C)
2. O=C(N[C@H]1C[C@H]2C(=O)N[C@@H](Cc3ccccc3)C(=O)NCCSSCCC(=O)N3CCC[C@H]3C(=O)N2C1)c1ccc(Cl)cc1 [X B1 D5 F Acid 25] ([Mpa]P[Pro(cis-4-NHBenzoyl(4-Cl))]F-Cysteamide; disulfide 1-C)
3. O=C1CCNC(=O)C2CN(C(=O)c3ccc(Cl)cc3)CCN2C(=O)C(Cc2c[nH]c3ccccc23)NC(=O)CCSSCCN1 (stereo not drawn)
4. O=C1CCSSCCNC(=O)[C@@H]2CCCN2C(=O)C2(CCN(C(=O)c3ccc(Cl)cc3)CC2)NC(=O)[C@H](Cc2ccccc2)N1 [X F D6 B1 Acid 25] ([Mpa]F[Api](Benzoyl(4-Cl))P-Cysteamide; disulfide 1-C)

0.10
0.15
0.07
0.17

----------
For each entry below, report its fraction of fluorescent probe displaced value.
- Target under test: MDM2 (Homo sapiens)
- Run description: MDM2 binding screen of Libraries 3 and 4: displacement of fluorescent probe F-M8 at 750 nM macrocycle
- Condition notes: Panel b, Library 3: 63 scaffolds combinatorially acylated with 15 carboxylic acids at 30 picomole scale; displacement of fluorescent peptide probe; macrocycle 750 nM

Use these answered entries as a reference point.
>>> result("O=C(CCS(=O)(=O)c1ccccc1)NC[C@H]1NC(=O)C2(CC2)CNC(=O)CCSSCCNC(=O)[C@H](Cc2c[nH]c3cc(Cl)ccc23)NC1=O [X-Amcp-D-Dap-Cl-Trp + Acid 114]")
-0.00533
>>> result("O=C(CCS(=O)(=O)c1ccccc1)NC[C@H]1NC(=O)[C@H]2CCCN(C2)C(=O)CCSSCCNC(=O)[C@H](Cc2c[nH]c3cc(Cl)ccc23)NC1=O [X-Nip-D-Dap-Cl-Trp + Acid 114]")
0.015
>>> result("CN1C(=O)C(CNC(=O)C2COc3ccccc3O2)NC(=O)C2(CC2)CNC(=O)CCSSCCNC(=O)C1Cc1c[nH]c2ccccc12 (mixture of isomers) [X-Amcp-D-Dap-NMe-Trp + Acid 115]")
0.015
>>> result("O=C(NC[C@@H]1NC(=O)[C@H]2CCCN(C2)C(=O)CCSSCCNC(=O)[C@@H](Cc2c[nH]c3ccccc23)NC1=O)c1ccc2ccccc2c1 [X-Nip-Dap-D-Trp + Acid 107]")
0.044
>>> result("CN1C(=O)[C@H](CNC(=O)c2ccc(Cl)cc2)NC(=O)C2(CC2)CNC(=O)CCSSCCNC(=O)[C@@H]1Cc1c[nH]c2ccccc12 [X-Amcp-Dap-NMe-Trp + Acid 25]")
0.00133

--- query ---
Field request: fraction of fluorescent probe displaced | item: O=C(/C=C/c1ccc(OCc2ccccc2)cc1)NC[C@@H]1NC(=O)[C@H]2CCCN(C2)C(=O)CCSSCCNC(=O)[C@@H](Cc2c[nH]c3ccccc23)NC1=O [X-Nip-Dap-D-Trp + Acid 110]
0.00133

----------
Please respond with reported percent residual thrombin activity for every item in the list.
- Target under test: thrombin (Homo sapiens)
- Construct: consists of two polypeptide chains of 36 (light chain) and 259 amino acid
- Run description: Thrombin inhibition screen of crude macrocycle reactions (residual thrombin activity, fluorogenic substrate Z-Gly-Gly-Arg-AMC)
- Type: biochemical
- Condition notes: 10 µM macrocycle concentration; crude reactions, Library 1a-l; scaffold AA1-AA2-AA3 combined with 1-16 or '-'
- Procedure: As a proof-of-concept, we screened the macrocycle library for inhibitors against thrombin, which is the central blood coagulation protease and an important therapeutic target. We conducted the screen for thrombin-inhibiting macrocycles in 384-well reaction plates. Briefly, each well contained a unique macrocycle (10 μM), 5 μL of thrombin (2 nM final conc.), and subsequently, 5 µL of a fluorogenic substrate to measure the residual thrombin activity and the extent of protease inhibition. […]
Numbered stars: 1 amine (or outer) side, 2 acyl side, 3 side chain; on linkers, the order of the positions; unused ones are H or OH. Bridge positions count the residues as written; N and C are the ends. Square brackets hold non-standard residues; d marks the D form. Peptide text beside a SMILES is read from it. Cysteamide = C(CS[*:3])N[*:1]; Orn = NCCC[C@H](N)C(=O)O; βAla = NCCC(=O)O; Mpa = O=C(O)CCS
Numbers only, in %.

Known percent residual thrombin activity results, listed for orientation:
>>> quantitative_result("COc1ccc(C(=O)NCCCC[C@@H]2NC(=O)CCSSCCNC(=O)C3(CC3)CNC(=O)[C@H](CO)NC2=O)cn1 [D1-S-B6/10]")
102.192
>>> quantitative_result("CC(C)[C@H]1NC(=O)[C@H](CCCCN)NC(=O)[C@@H]2CCCN2C(=O)CCSSCCNC1=O [B1-D1-v/-] ([Mpa]PK[dV]-Cysteamide; disulfide 1-C)")
114.269

Batch of 2 molecules: report percent residual thrombin activity for each.
1. CC(C)C[C@@H]1NC(=O)CCNC(=O)CCSSCCNC(=O)[C@H](CCCN)NC1=O [B2-L-D2/-] ([Mpa][βAla]L[Orn]-Cysteamide; disulfide 1-C)
2. O=C1CCNC(=O)[C@@H](CO)NC(=O)CCSSCCNC(=O)[C@H](CCCCNC(=O)c2ccco2)N1 [s-B2-D1/16]

1: 113.32; 2: 112.001
